# Test system: SW-620
# assay_name: NCI tumour cell line growth inhibition, 48 h
The source made the active and inactive calls. Rule as the data show it: active = GI50 up to about 1.1 µM and inactive = higher.
Choose the fitting class; nothing outside active, inactive is accepted.

Solved cases (5 shown):
molecule="C=C1C(=O)OC2/C=C(\\CO)C3OC3C3OC3(C)CC(OC(=O)/C(=C/C)CO)C12 (stereo not given)" assigned_class=inactive
molecule=C#CCn1c(=O)c(C)cn(/C(=C/C(=O)OCC)C(=O)OCC)c1=O assigned_class=inactive
molecule="CCCCCC(/C=N/N)C(O)(C(F)(F)F)C(F)(F)F (stereo not given)" assigned_class=inactive
molecule=CCCCCCCCC(=O)NCCCNCCCNC(=O)CCCCCCCC assigned_class=inactive
molecule=CC(C)(C)CC(C)(C)c1ccc(O)c(C[N+](C)(C)[O-])c1 assigned_class=inactive

Give the logged outcome of this assay for the following molecule: CC1=C(C(=O)Nc2ccccc2)C(c2ccccc2)C(C(=O)Nc2ccccc2)=C(C)N1 inactive

Give the logged outcome of this assay for the following molecule: O=C(NNC(=O)c1cc2ccccc2[nH]1)c1cc2ccccc2[nH]1 inactive

Give the logged outcome of this assay for the following molecule: COc1cc(OC)c(Oc2cccc(OC)c2OC)c(OC)c1 inactive
